test-protocol: qHTS assay to identify aromatase inhibitors - cell viability counter screen (AID 743084);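 further: cells stimulated with testosterone during compound exposure; nearly all actives have a fitted effect of over 55% in size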; further: potency means the concentration at half of the fitted maximal effect
condition-summary: MCF-7 aro ERE viability, CellTiter-Fluor, 24 h; series mostly up to 70.3 µM
Results filed as inconclusive are left out. Active and inactive are the calls of the source. The call rests on the fitted dose curve; in most records, active means well fitted cell-killing curve with a large enough effect in the repeat runs; inconclusive means weak or mixed curves, or effect the other way; inactive means no such curve, though single readings can be large or run the other way.
measured-quantity: Potency

Solved entries (count: 10):
* CO[Si](CCCNc1ccccc1)(OC)OC | inactive
* CNc1ccc(O)cc1 | 19.3 µM (active)
* CC[C@H]1O[C@]2(CC[C@@H]1C)C[C@@H]1C[C@@H](C/C=C(\C)C[C@@H](C)/C=C/C=C3\CO[C@@H]4[C@H](O)C(C)=C[C@@H](C(=O)O1)[C@]34O)O2 | 27.1 µM (active)
* C[C@@H]1C[C@H]2[C@@H]3CCC4=CC(=O)C=C[C@]4(C)[C@@]3(Cl)[C@@H](O)C[C@]2(C)[C@@]1(OC(=O)c1ccco1)C(=O)CCl | inactive
* COc1cc(/C=C/C(=O)O[C@H]2CC[C@]34C[C@]35CC[C@]3(C)[C@@H]([C@H](C)CCC=C(C)C)CC[C@@]3(C)[C@@H]5CC[C@H]4C2(C)C)ccc1O | inactive
* CCN(CC)CCCC(C)Nc1c2ccc(Cl)cc2nc2ccc(OC)cc12 (configuration not stated) | inactive
* CC(=O)SC[C@@H](Cc1ccccc1)C(=O)NCC(=O)OCc1ccccc1 | inactive
* CCN(C(=O)N(CC)c1ccccc1)c1ccccc1 | inactive
* C[C@H](CCC(=O)O)[C@H]1CC[C@H]2[C@@H]3CC[C@@H]4C[C@H](O)CC[C@]4(C)[C@H]3CC[C@]12C | inactive
* N=C1N=C(N)c2cc3ccccc3cc21 | 61.1 µM (active)

Ask | Given the compound Oc1c(Cl)cc(Cl)c2cccnc12 , write its reported Potency.
Reply | inactive

Ask | Given the compound CCCCCCCCCCC=O , write its reported Potency.
Reply | inactive

Ask | Given the compound Clc1ccc2cc3ccccc3cc2c1 , write its reported Potency.
Reply | inactive

Ask | Given the compound CCC(C)(C)C1CCCCC1OC(C)=O (configuration not stated) , write its reported Potency.
Reply | inactive

Ask | Given the compound CCCCCCCC/C=C\CCCCCCCCOCCO , write its reported Potency.
Reply | 79.4 µM (active)

Ask | Given the compound Clc1ccc2nsnc2c1NC1=NCCN1 , write its reported Potency.
Reply | inactive

----------
system-tested: Aryl hydrocarbon receptor (Homo sapiens)
test-protocol: qHTS assay to identify small molecule that activate the aryl hydrocarbon receptor (AhR) signaling pathway (AID 743085); further: nearly all actives have a fitted effect of over 15% in size;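 on activation: HG2L7.5c1 human HepG2 liver cells with stably integrated DRE-driven firefly reporter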
condition-summary: HepG2 AhR-luc (HG2L7.5c1), luciferase, 24 h; series mostly up to 70.3 µM
Excerpt: U.S. Tox21 Program National Center for Advancing Translational Sciences [NCATS] NIH Chemical Genomics Center [NCGC] U.S. Environmental Protection Agency [EPA] National Institutes of Environmental Health Sciences [NIEHS] National Toxicology Program [NTP] U.S. Food and Drug Administration [FDA] Tox21 Assay overview: The Aryl hydrocarbon Receptor (AhR), a member of the family of basic helix-loop-helix transcription factors, is crucial to adaptive responses to environmental changes. […]
Inconclusive results are not listed. The source made the active and inactive calls. Calls follow the shape of the dose curve; as a rule, active = well fitted activation curve with a large enough effect in the repeat runs; inconclusive = weak or mixed curves; inactive = no such curve, though single readings can be large or run the other way.
Select the correct class. Options are active, inactive and nothing else.

Ask | What did the test return for Oc1cccc2cc3cccc(O)c3c(O)c12 ?
Reply | inactive

Ask | What did the test return for Oc1c(Cl)cc(Cl)c2cccnc12 ?
Reply | active

Ask | What did the test return for Fc1ccc([C@@H]2CCNC[C@H]2COc2ccc3c(c2)OCO3)cc1 ?
Reply | inactive

Ask | What did the test return for COc1ccc(C(=O)/C(Br)=C\C(=O)O)cc1 ?
Reply | inactive

Ask | What did the test return for CCCCC(CC)CN=C(N)NC(N)=NCCCCCCN=C(N)NC(N)=NCC(CC)CCCC (stereo unspecified) ?
Reply | inactive

src = PubChem BioAssay (Tox21)
